Values were extracted from ChEMBL document CHEMBL5303304.

# Lookup of reported Growth Rate keyed by entry
Test system: Fibroblast
METHOD: Incucyte cell viability with human fibroblast; note: unitless GR value; below 1 slowed growth and below 0 cell loss
Assay type: toxicity, cell-based
EXPERIMENTAL_CONTEXT: 12 h, 10 µM, compound concentration 10 uM, replicate number 1

Below: 6 compounds and their reported Growth Rate.
Task: For Cc1ccc2c(NS(=O)(=O)c3ccccc3Cl)cccc2c1Oc1ncccc1-c1ccnc(N[C@H]2CCCNC2)n1.Cl , what is its reported Growth Rate?
Result: 0.21

Task: Would you kindly repeat that for CC(C)(C)S(=O)(=O)c1ccc2nccc(Nc3n[nH]c4ccc(F)cc34)c2c1 ?
Result: 0.85

Task: Request: CC(C)[C@H](C(=O)Nc1ccc(C(=O)NO)cc1)c1ccccc1
Result: -1

Task: And then Cc1onc(O)c1CC(N)C(=O)O [(R,S)-AMPA] , what is it?
Result: -1

Task: Record: CN1CCN(c2nc(N)c3ccccc3n2)CC1
Result: -1

Task: # repeat for CC(=O)Nc1nc(C)c(S(=O)(=O)Nc2ccc(C(O)(C(F)(F)F)C(F)(F)F)cc2)s1
Result: 0.45

***
Task: So what does the record say about Growth Rate for CN1CCN(c2ccc(-n3cc(-c4ccncc4OCC4CCNCC4)cn3)cc2)CC1 ?
Result: 0.81

Task: Please give the result for COC1(C#Cc2ccc(Cl)c(-c3ncc4c(n3)-c3sc(NC(C)=O)nc3CC4)c2)CCN(C)CC1 too.
Result: 0.03

Task: How about COc1cc(OC)c(NC(=O)Nc2cc(C)on2)cc1Cl ?
Result: -1

Task: Also Nc1ncnc2c1ccn2[C@@H]1O[C@H]([C@@H](O)c2ccccc2)[C@@H](O)[C@H]1O , if possible.
Result: 0.69

Task: C[C@@H](CO)CCC[C@@H](C)[C@H]1CC[C@H]2[C@@H]3CC=C4C[C@@H](O)CC[C@]4(C)[C@H]3CC[C@]12C ?
Result: 0.57

Task: Also COCc1c(-c2cc3cc(C)cc(OC)c3s2)c2c(N)ncnn2c1CN[C@@H]1CCNC1=O , if possible.
Result: 0.6

Task: Do the same for Cc1cc(SCc2sc(-c3ccc(C(F)(F)F)cc3)nc2C)ccc1OCC(=O)O please
Result: 0.83
